So I've got a bunch of compounds here, and I need their pIC50 values.
Biological target: human CYP4A11 (Homo sapiens (Human), UniProt Q02928)
Sequence (Q02928 5-519): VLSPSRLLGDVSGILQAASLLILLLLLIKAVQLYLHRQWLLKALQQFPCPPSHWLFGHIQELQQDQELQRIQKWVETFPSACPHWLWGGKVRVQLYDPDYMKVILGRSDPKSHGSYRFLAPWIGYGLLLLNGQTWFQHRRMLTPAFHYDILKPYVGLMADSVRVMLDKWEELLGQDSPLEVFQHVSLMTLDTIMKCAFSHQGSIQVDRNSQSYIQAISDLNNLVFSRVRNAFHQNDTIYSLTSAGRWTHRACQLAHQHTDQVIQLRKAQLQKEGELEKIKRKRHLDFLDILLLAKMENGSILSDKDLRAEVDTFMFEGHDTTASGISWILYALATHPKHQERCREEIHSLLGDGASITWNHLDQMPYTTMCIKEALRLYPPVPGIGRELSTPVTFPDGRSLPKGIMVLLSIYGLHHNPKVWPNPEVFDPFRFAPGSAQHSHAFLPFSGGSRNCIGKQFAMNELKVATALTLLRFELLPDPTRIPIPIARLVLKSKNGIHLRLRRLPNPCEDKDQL
Assay: Inhibition test against 20-HETE producing enzyme CYP4A11 (luciferine derivative, luminescence)
Type: biochemical
Conditions: E. coli membrane fraction expressing human CYP4A11, 60 μM luciferine derivative, room temperature 60 minutes
Give bare numbers, as −log10 of the molar value.

Study these solved cases before continuing.
> print(dat)
                                   compound  test.result
1  CC(=O)N1CCC(O)(c2cccc(COc3ccc(-c4ccn[nH]4)nc3)c2)CC1         6.15
2  CC(C)(COCCCCCCOc1ccc(-c2ccn[nH]2)nc1)C(=O)O         6.96
3  CC(C(=O)O)c1cccc(COc2ccc(-c3ccn[nH]3)nc2)c1 (centres unmarked)         7.80

For every item below, please supply its pIC50.
1. O=C(O)c1cc(COc2ccc(-c3ccn[nH]3)nc2)ccc1Cl
2. O=C(CCCC1(C(=O)O)CCCC1)N1CCC[C@@H](COc2ccc(-c3ccn[nH]3)nc2)C1
3. O=C(O)c1ccnc(-c2cccc(COc3ccc(-c4ccn[nH]4)nc3)c2)c1
4. COc1cc(COc2ccc(-c3ccn[nH]3)nc2)ccc1C(=O)O

Found:
1. 6.11
2. 6.92
3. 7.46
4. 7.21

====

Molecular target: human CYP4A11 (Homo sapiens (Human), UniProt Q02928)
Test: Inhibition test against 20-HETE producing enzyme CYP4A11 (luciferine derivative, luminescence)
Format: biochemical
Conditions: E. coli membrane fraction expressing human CYP4A11, 60 μM luciferine derivative, room temperature 60 minutes
endpoint label: IC50 (nM)
Numbers only, in nM.

Provide IC50 for all items below, preserving their order.
1. O=C(O)C1CCN(S(=O)(=O)c2cccc(COc3ccc(-c4ccn[nH]4)nc3)c2)CC1
2. O=C(O)c1cccc(CCOc2ccc(-c3ccn[nH]3)nc2)c1
3. CN(CCC(C)(C)C(=O)O)S(=O)(=O)c1cccc(COc2ccc(-c3ccn[nH]3)nc2)c1

Found:
[68, 340, 29]

Hi! Can you tell me IC50 for each of these compounds?
1. CC(C)(CCc1cc(COc2ccc(-c3ccn[nH]3)nc2)ccn1)C(=O)O
2. O=C(O)[C@H]1CCC[C@H](COc2ccc(-c3ccn[nH]3)nc2)C1 (racemic)
3. O=C(O)C1(CCCCCCCOc2ccc(-c3ccn[nH]3)nc2)CCCC1
4. CC(C)(COc1cc(COc2ccc(-c3ccn[nH]3)nc2)ccn1)C(=O)O

Found:
1. 42
2. 51
3. 46
4. 70

====

Target: human CYP4F2 (Homo sapiens (Human), UniProt P78329)
Sequence (P78329 5-520): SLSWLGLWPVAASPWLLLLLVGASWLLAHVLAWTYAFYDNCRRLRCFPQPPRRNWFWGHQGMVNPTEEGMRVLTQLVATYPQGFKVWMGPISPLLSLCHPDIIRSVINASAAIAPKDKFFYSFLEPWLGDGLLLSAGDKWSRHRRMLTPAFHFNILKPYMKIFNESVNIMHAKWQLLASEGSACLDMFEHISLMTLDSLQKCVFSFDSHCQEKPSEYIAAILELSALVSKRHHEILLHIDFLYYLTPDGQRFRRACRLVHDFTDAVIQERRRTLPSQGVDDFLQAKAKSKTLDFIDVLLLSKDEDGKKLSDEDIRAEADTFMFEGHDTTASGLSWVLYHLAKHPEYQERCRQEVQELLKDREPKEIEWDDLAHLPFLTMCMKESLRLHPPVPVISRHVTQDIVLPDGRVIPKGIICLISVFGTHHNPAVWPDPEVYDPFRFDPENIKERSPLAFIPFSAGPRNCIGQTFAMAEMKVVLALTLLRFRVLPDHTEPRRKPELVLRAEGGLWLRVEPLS
Experiment: Inhibition test against 20-HETE producing enzyme CYP4F2 (luciferine derivative, luminescence)
Assay type: biochemical
Conditions: human CYP4F2, luciferine derivative, luminescence
endpoint label: pIC50
Give bare numbers, as −log10 of the molar value.

Reference set, count: 2
> print(dat)
                               entry.smiles  endpoint.label  test.result
1  O=C(CCc1cccc(COc2cnc(-c3ccn[nH]3)c(F)c2)c1)NCCO           pIC50         7.68
2  O=C(NC1(C(=O)O)CCOCC1)c1cccc(COc2ccc(-c3ccn[nH]3)nc2)c1           pIC50         5.17

Hi team, please reply with pIC50 for each item in this list.
1. CC(C)(COc1cc(CCCOc2ccc(-c3ccn[nH]3)nc2)ccn1)C(=O)O
2. O=C(O)C1(Cc2ccc(CCOc3ccc(-c4ccn[nH]4)nc3)cc2)COC1

Found:
6.60
4.89

====

Target: 20-HETE producing enzymes, human kidney microsome
Assay: Inhibition test against 20-HETE producing enzymes using human kidney microsomes (LC-MS/MS)
Details: human kidney microsome 250 μg/mL protein, 20 μM arachidonic acid, 37° C. 45 minutes, LC-MS/MS
I'd be grateful if you could share measured IC50 for these entries.
// return the numeric value with its unit appended

Here's what some known entries look like.
> print(dat)
                               entry.smiles  endpoint.label  test.result
1  CC(C)(COCCCCCCOc1ccc(-c2ccn[nH]2)nc1)C(=O)O            IC50     0.019 µM
2  O=C(O)C1(CCCCCCCCOc2ccc(-c3ccn[nH]3)nc2)CS(=O)(=O)C1            IC50    0.0017 µM

Lookup: Could you tell me which IC50 is on file for `O=C(O)C12CC(CCCCCCOc3ccc(-c4ccn[nH]4)nc3)(C1)C2` ?
Found: 0.014 µM

====

Target: human CYP4A11 (Homo sapiens (Human))
Assay: Inhibition test against 20-HETE producing enzyme CYP4A11 (luciferine derivative, luminescence)
Type: biochemical
Details: human CYP4A11, luciferine derivative, luminescence
endpoint label: IC50 (nM)
One number for each entry, in nM.

For orientation, consider the following solved cases.
> print(dat)
                               entry.smiles                        assayed.target  test.result
1  CC[C@@H](OCCCCCCCOc1ccc(-c2ccn[nH]2)nc1)C(=O)O  human CYP4A11 (Homo sapiens (Human))          170
2  O=C(O)[C@@H]1CCCN(S(=O)(=O)c2cccc(COc3ccc(-c4ccn[nH]4)nc3)c2)C1  human CYP4A11 (Homo sapiens (Human))           27

Quick batch: IC50 for everything below.
1. O=C(CCc1cccc(COc2cnc(-c3ccn[nH]3)c(F)c2)c1)NC1COC1
2. O=C(NCC1(C(=O)O)CC1)c1cccc(COc2ccc(-c3ccn[nH]3)nc2)c1
3. O=C(O)C[C@@H](NC(=O)c1cccc(COc2ccc(-c3ccn[nH]3)nc2)c1)c1ccccc1

Found:
1: 76; 2: 86; 3: 130

====

Biological target: human CYP4A11 (Homo sapiens (Human), UniProt Q02928)
Test: Inhibition test against 20-HETE producing enzyme CYP4A11 (luciferine derivative, luminescence)
Type: biochemical
Conditions: E. coli membrane fraction expressing human CYP4A11, 60 μM luciferine derivative, room temperature 60 minutes
endpoint label: log10(IC50) (log10 of the value in µM)
Lab note - IC50 converted to log10 from values in µM.

Here is how some compounds turned out for log10(IC50).
> print(dat)
                               entry.smiles  endpoint.label  test.result
1  O=C(O)c1ccc(COc2ccc(-c3ccn[nH]3)nc2)cc1F     log10(IC50)        -1.46
2    O=C(O)Cc1ccccc1COc1ccc(-c2ccn[nH]2)nc1     log10(IC50)         0.58
3  O=C(O)CCc1ccccc1CCCOc1ccc(-c2ccn[nH]2)nc1     log10(IC50)        -1.80
4  CC(C)(CC(=O)N1CCC(COc2ccc(-c3ccn[nH]3)nc2)CC1)C(=O)O     log10(IC50)         0.51
5  O=C(O)Cn1ncc2cc(COc3ccc(-c4ccn[nH]4)nc3)ccc21     log10(IC50)        -1.28

Please report log10(IC50) for every entry that follows.
1. CC(C)(C(=O)O)c1cccc(OCCOc2ccc(-c3ccn[nH]3)nc2)c1
2. O=C(CCCCCCOc1ccc(-c2ccn[nH]2)nc1)NC1(C(=O)O)CCCC1
3. O=C(O)c1cccc(-c2cccc(COc3ccc(-c4ccn[nH]4)nc3)c2)n1
4. O=C(O)c1cncc(-c2cccc(COc3ccc(-c4ccn[nH]4)nc3)c2)n1

Found:
-1.22
-1.12
-1.89
-1.62

====

Target: human CYP4F2 (Homo sapiens (Human), UniProt P78329)
Assay: Inhibition test against 20-HETE producing enzyme CYP4F2 (luciferine derivative, luminescence)
Format: biochemical
Conditions: E. coli membrane fraction expressing human CYP4F2, 2.5 μM luciferine derivative, room temperature 60 minutes
endpoint label: pIC50
Give bare numbers, as −log10 of the molar value.

In the examples that follow, each entry is paired with its recorded pIC50.
> print(dat)
                                   compound  test.result
1  O=C(O)/C=C/c1cccc(COc2ccc(-c3ccn[nH]3)nc2)c1         6.85
2  OC1(c2cccc(COc3ccc(-c4ccn[nH]4)nc3)c2)CCCC1         6.92
3  O=C(CCc1cccc(COc2ccc(-c3ccn[nH]3)nc2)c1)N1CCC1         7.38
4  O=C(CCC1(C(=O)O)CCCC1)N1CCCC(CCOc2ccc(-c3ccn[nH]3)nc2)C1 (centres unmarked)         6.59
5  O=C(O)c1cncc(-c2cccc(COc3ccc(-c4ccn[nH]4)nc3)c2)n1         6.29

Take each entry in turn and give its pIC50.
1. CC(=O)N1CCC(CCCCCCCCOc2ccc(-c3ccn[nH]3)nc2)(C(=O)O)CC1
2. O=C(O)CCS(=O)(=O)c1cccc(COc2ccc(-c3ccn[nH]3)nc2)c1
3. O=C(O)Cc1ccc(CCOc2ccc(-c3ccn[nH]3)nc2)cc1

Found:
1. 8.10
2. 5.66
3. 5.57

Every entry's value here was drawn from patent US11365192B2.
